ASSAYED TARGET: GST-Aq-NF-kB (Amphimedon queenslandica, UniProt A9Y5G7 2-389)
Sequence: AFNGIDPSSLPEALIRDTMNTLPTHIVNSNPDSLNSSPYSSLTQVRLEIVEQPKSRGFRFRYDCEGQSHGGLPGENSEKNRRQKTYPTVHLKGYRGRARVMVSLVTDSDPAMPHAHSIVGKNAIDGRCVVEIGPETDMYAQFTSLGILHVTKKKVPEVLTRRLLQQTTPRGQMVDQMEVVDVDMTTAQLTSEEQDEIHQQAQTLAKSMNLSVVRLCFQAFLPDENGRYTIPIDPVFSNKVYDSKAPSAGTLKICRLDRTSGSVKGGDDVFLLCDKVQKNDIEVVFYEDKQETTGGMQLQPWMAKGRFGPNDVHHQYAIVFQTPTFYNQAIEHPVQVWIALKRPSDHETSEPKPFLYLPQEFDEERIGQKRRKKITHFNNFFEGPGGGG
EXPERIMENT: protein-binding microarray (PBM); PBM: ~300 nM protein, 6 mM HEPES pH 7.8, 80 mM KCl, 0.5 mM EDTA, 0.5 mM EGTA, 6% glycerol, 35 ng/ul poly-dIdC, 1% milk, 1 h, room temperature; Ap Aiptasia and Nv Nematostella (sea anemones) / Co Capsaspora / Aq Amphimedon (sponge) / Dm Drosophila / Hu human; RHD is the Rel homology domain; high values mean tight binding
EXPERIMENTAL PARAMETERS: dsDNA, one strand shown
MEASURED PROPERTY: binding signal

// assay GST-Aq-NF-kB (Amphimedon queenslandica, UniProt A9Y5G7 2-389), entry `CCGATTAACATCAAACCTTCCCCTGATGTTAATCGGGTCTTGATTCGCTTGACGCTGCTG` , binding signal value = 4.92 z-score

// assay GST-Aq-NF-kB (Amphimedon queenslandica, UniProt A9Y5G7 2-389), entry `CCGATTAACATCAAGGGAAAAATTGATGTTAATCGGGTCTTGATTCGCTTGACGCTGCTG` , binding signal value = 5.11 z-score

// assay GST-Aq-NF-kB (Amphimedon queenslandica, UniProt A9Y5G7 2-389), entry `CCGATTAACATCAGGATAACCCCTGATGTTAATCGGGTCTTGATTCGCTTGACGCTGCTG` , binding signal value = 5.12 z-score
